Reference for the values: patent US6495591B1

test system: Aspergillus fumigatus; test: FEPI MICs in combination with 1/4 the azole's MIC (Table 12); assay type: cell-based; conditions: itraconazole 0.063 μg/ml (1/4 MIC); 60% inhibition
MEASURED METRIC: FEPI MIC with itraconazole, 60% Inh

Here's what some known entries look like.
COMPOUND | EXPERIMENTAL RESULT
CCCCC(C)C(=O)OC1[C@@H](O)[C@]2(C[C@@H]3C[C@@H](C/C=C(\C)C[C@@H](C)/C=C/C=C4\CO[C@@H]5[C@H](OC)C(C)=CC(C(=O)O3)[C@]45O)O2)O[C@H](C)[C@H]1C (stereo partly drawn) | 1
CO[C@@H]1C(C)=C[C@H]2C(=O)O[C@H]3C[C@@H](C/C=C(\C)C[C@@H](C)/C=C/C=C4\CO[C@H]1[C@@]42O)O[C@]1(C3)C[C@H](O)[C@H](C)[C@@H](/C(C)=C/C(C)C)O1 | 1
CC1=C[C@H]2C(=O)O[C@H]3C[C@@H](C/C=C(\C)C[C@@H](C)/C=C/C=C4\CO[C@H]([C@@H]1O)[C@@]42O)O[C@]1(C3)C[C@H](O)[C@H](C)[C@@H](/C(C)=C/C(C)C)O1 | 1
CCCCC(C)C(=O)OC1C(C)C(CC)OC2(CC3CC(CC=C(C)CC(C)C=CC=C4COC5C(O)C(C)=CC(C(=O)O3)C45O)O2)C1O (stereo not drawn) | 1
C/C1=C\C[C@@H]2C[C@@H](C[C@]3(CC[C@H](C)[C@@H](C)O3)O2)OC(=O)[C@@H]2C=C(COC(=O)c3ccc[nH]3)[C@@H](O)[C@H]3OC/C(=C\C=C\[C@H](C)C1)[C@]32O | 1

Now consider a different compound.
(Q) FEPI MIC with itraconazole, 60% Inh for CCCCC(C)C(=O)OC1C(C)C(C)OC2(CC3CC(C/C=C(\C)CC(C)/C=C/C=C4\COC5C(O)C(C)=CC(C(=O)O3)C45O)O2)C1O (stereo not drawn) ?
(A) 1
